The measured values listed here are drawn from patent US8232407B2.

Listing of entries alongside the reported Aphis craccivoral Mortality (%) 500 ppm.
System: Aphis craccivoral
ASSAY_OVERVIEW: Insecticidal activities to aphids, immersion method
Type: in vivo
CONDITION_CONTEXT: in vivo
Numeric answer only, unit % assumed.

# MOLECULE, Aphis craccivoral Mortality (%) 500 ppm
records = [
    ("CN=C(C(=C(C)c1ccc([N+](=O)[O-])o1)[N+](=O)[O-])N(C)C(C)c1ccc(Cl)nc1 (stereo not shown)", 96),
    ("CCN=C(C(=Cc1ccoc1)[N+](=O)[O-])N(C)Cc1ccc(Cl)nc1", 93),
    ("CCN(Cc1cnc(Cl)s1)C(=NC)C(=Cc1ccco1)[N+](=O)[O-]", 90),
]

Input: Please supply the value of reported Aphis craccivoral Mortality (%) 500 ppm for the item `CCN(Cc1ccc(Cl)nc1)C(=NC)C(=C(C)c1ccsc1)[N+](=O)[O-]`
Output: 100

Input: Please report Aphis craccivoral Mortality (%) 500 ppm for the following molecule: `C[N+]1=C(C(=Cc2ccc([N+](=O)[O-])o2)[N+](=O)[O-])N(Cc2cnc(Cl)s2)CC1.[Cl-]`
Output: 100

Input: Entry CN=C(C(=Cc1cccs1)[N+](=O)[O-])N(C)Cc1ccc(Cl)nc1 [Compound 166] needs its Aphis craccivoral Mortality (%) 500 ppm filled in; supply it.
Output: 98

Input: Provide Aphis craccivoral Mortality (%) 500 ppm value for the following molecule: CCN(Cc1ccc(Cl)nc1)C(=NC)C(=Cc1ccoc1)[N+](=O)[O-] [Compound 180]
Output: 100

Input: Using known records, supply Aphis craccivoral Mortality (%) 500 ppm for `Cc1ccc(C=C(C2=NCCCN2Cc2ccc(Cl)nc2)[N+](=O)[O-])o1`
Output: 100

Input: For the molecule `O=[N+]([O-])C(=Cc1ccc([N+](=O)[O-])s1)C1=NCCN1Cc1ccc(Cl)nc1` , report Aphis craccivoral Mortality (%) 500 ppm.
Output: 100

Input: Name the recorded Aphis craccivoral Mortality (%) 500 ppm of the item `CCc1ccc(C=C(C2=NCCCN2Cc2ccc(Cl)nc2)[N+](=O)[O-])o1` in your answer.
Output: 57

Input: Tell us which Aphis craccivoral Mortality (%) 500 ppm value is on record for CC(=C(C1=NCCN1C(C)c1ccc(Cl)nc1)[N+](=O)[O-])c1ccsc1 (racemic)
Output: 93

Input: Fill in reported Aphis craccivoral Mortality (%) 500 ppm for this entry: `CCN(Cc1cnc(Cl)s1)C(=NC)C(=Cc1ccc(Cl)o1)[N+](=O)[O-]`
Output: 100

Input: Check the records and state Aphis craccivoral Mortality (%) 500 ppm for CC(=C(C1=NCCN1C(C)c1ccc(Cl)nc1)[N+](=O)[O-])c1ccco1 (racemic)
Output: 48

Input: Please report the measured Aphis craccivoral Mortality (%) 500 ppm for CN=C(C(=Cc1ccc[nH]1)[N+](=O)[O-])N(C)Cc1ccc(Cl)nc1 [Compound 170]
Output: 89

Input: Read the entry `CN=C(NCc1ccc(Cl)nc1)C(=Cc1ccc([N+](=O)[O-])o1)[N+](=O)[O-]` and write its reported Aphis craccivoral Mortality (%) 500 ppm.
Output: 56

Input: Report Aphis craccivoral Mortality (%) 500 ppm for CCN(C(=NC)C(=Cc1ccc(Br)o1)[N+](=O)[O-])C(C)c1ccc(Cl)nc1 (stereo not shown)
Output: 88
